# Test system: SK-MEL-28 melanoma
# protocol.summary: NCI tumour cell line growth inhibition, 48 h
reported.metric: TGI (µM)
Give bare numbers, in µM.

Use the examples below as a reference point.
{"molecule": "Oc1c(I)cc(I)cc1CN(Cc1ccccn1)Cc1ccccn1", "reported.result": 31.6}
{"molecule": "COc1ccc(C2=NN(C(=O)c3cccnc3)C(O)(c3cc(F)c(Cl)cc3Cl)C2)cc1OC (stereo not given)", "reported.result": 54.4}
{"molecule": "CC1C(O)Oc2cc3c(cc2C1c1ccccc1O)OCO3 (stereo not given)", "reported.result": 84}

Could you now consider this next molecule?
Reported TGI for N#CC1(C#N)C(c2ccccc2)C=CC(c2ccc([N+](=O)[O-])cc2)C1(C#N)C#N (stereo not given) : what is it?
35.5
